Ref: patent US8822500B2

// reported pIC50 per item
study_target: hERG (human ether-a-go-go related gene) potassium channel (Homo sapiens (Human))
Sequence (Q12809 whole entry): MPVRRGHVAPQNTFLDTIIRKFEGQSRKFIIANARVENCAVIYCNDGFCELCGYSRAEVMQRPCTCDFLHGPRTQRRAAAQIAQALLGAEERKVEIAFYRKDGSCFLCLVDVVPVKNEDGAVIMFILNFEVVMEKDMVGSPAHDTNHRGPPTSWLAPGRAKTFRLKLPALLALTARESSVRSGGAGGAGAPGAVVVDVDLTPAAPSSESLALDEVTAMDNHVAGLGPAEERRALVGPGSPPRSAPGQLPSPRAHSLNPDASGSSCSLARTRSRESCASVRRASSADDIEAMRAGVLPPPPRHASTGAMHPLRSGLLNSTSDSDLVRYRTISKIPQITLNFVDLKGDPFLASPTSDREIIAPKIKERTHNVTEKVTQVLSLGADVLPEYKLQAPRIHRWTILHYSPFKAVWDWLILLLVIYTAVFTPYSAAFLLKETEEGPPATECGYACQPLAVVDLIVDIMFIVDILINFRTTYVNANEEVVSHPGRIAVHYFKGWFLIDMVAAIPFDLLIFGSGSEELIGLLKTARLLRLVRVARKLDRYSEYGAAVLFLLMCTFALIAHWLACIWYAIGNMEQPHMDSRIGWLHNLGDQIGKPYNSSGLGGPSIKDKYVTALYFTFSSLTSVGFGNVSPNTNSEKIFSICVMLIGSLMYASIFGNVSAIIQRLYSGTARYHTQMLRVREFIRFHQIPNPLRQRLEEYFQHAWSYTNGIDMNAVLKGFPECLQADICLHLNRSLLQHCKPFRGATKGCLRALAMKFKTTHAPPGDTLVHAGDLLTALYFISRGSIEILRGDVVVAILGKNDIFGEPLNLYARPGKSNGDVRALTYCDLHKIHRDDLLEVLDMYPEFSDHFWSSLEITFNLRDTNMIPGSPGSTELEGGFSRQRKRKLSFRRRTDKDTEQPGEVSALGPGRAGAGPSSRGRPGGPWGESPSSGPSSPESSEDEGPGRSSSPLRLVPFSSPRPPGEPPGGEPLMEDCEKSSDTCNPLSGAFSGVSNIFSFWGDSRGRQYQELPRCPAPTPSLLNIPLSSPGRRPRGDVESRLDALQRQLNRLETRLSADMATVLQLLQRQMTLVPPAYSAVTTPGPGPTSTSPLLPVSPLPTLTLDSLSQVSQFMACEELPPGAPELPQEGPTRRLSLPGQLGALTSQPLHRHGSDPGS
experiment_notes: hERG potassium channel current, automated patch clamp (PatchXpress 7000A)
Please treat pIC50 as minus the base-10 logarithm of the molar concentration.

- molecule: "CC(Cc1cc(F)ccc1F)Nc1cc[nH]c(=O)c1-c1nc2cc3c(cc2[nH]1)C(=O)N(CCN(C)C)C3 (racemic) [Compound 18]"
  pIC50: 5.27

Next molecule, pIC50 to be filled in.
Asked: Entry C[C@@H](Cc1c(F)c(F)cc(F)c1F)Nc1cc[nH]c(=O)c1-c1nc2cc3c(cc2[nH]1)CN(CCN1CCCC1)C3=O [Compound 3] : reported pIC50 = ?
Given back: 5.50

====

study_target: UniProt Q12809
experiment_notes: in vitro
condition_info: Mean % hERG Inhibition
value_kind: inhibition at 5 min, 30 µM (%)
State the answer as a number, implicitly in %.

Asked: Need inhibition at 5 min, 30 µM, item C[C@@H](Cc1c(F)c(F)cc(F)c1F)Nc1cc[nH]c(=O)c1-c1nc2cc3c(cc2[nH]1)CN(CCN1CCCC1)C3=O
Given back: 84.4

====

Tested on: K299 lymphoma cells
experiment_notes: Cellular assay, 3 day cell viability (WST-1)
Format: cell-based
condition_info: 3 days, read-out: K299 IC50
value_kind: pIC50
In simple prose, pIC50 is minus the logarithm base ten of a concentration in moles per litre.

Asked: Using the record for C[C@@H](Cc1c(F)c(F)cc(F)c1F)Nc1cc[nH]c(=O)c1-c1nc2cc3c(cc2[nH]1)CN(CCN(C)C)C3=O , report its pIC50.
Given back: 7.14

====

experiment_notes: Rat pharmacokinetics / bioavailability
Type: in vivo
condition_info: male, Sprague-Dawley, plasma, iv, 10 mg/kg I.V.
value_kind: clearance (L/h/kg)
Please respond with the number in L/h/kg and leave the unit unwritten.

Asked: GET /values?readout=clearance&item= C[C@@H](Cc1c(F)c(F)cc(F)c1F)Nc1cc[nH]c(=O)c1-c1nc2cc3c(cc2[nH]1)CN(CCN(C)C)C3=O
Given back: 1.53

====

study_target: RET (Homo sapiens (Human))
Sequence (P07949 29-1114): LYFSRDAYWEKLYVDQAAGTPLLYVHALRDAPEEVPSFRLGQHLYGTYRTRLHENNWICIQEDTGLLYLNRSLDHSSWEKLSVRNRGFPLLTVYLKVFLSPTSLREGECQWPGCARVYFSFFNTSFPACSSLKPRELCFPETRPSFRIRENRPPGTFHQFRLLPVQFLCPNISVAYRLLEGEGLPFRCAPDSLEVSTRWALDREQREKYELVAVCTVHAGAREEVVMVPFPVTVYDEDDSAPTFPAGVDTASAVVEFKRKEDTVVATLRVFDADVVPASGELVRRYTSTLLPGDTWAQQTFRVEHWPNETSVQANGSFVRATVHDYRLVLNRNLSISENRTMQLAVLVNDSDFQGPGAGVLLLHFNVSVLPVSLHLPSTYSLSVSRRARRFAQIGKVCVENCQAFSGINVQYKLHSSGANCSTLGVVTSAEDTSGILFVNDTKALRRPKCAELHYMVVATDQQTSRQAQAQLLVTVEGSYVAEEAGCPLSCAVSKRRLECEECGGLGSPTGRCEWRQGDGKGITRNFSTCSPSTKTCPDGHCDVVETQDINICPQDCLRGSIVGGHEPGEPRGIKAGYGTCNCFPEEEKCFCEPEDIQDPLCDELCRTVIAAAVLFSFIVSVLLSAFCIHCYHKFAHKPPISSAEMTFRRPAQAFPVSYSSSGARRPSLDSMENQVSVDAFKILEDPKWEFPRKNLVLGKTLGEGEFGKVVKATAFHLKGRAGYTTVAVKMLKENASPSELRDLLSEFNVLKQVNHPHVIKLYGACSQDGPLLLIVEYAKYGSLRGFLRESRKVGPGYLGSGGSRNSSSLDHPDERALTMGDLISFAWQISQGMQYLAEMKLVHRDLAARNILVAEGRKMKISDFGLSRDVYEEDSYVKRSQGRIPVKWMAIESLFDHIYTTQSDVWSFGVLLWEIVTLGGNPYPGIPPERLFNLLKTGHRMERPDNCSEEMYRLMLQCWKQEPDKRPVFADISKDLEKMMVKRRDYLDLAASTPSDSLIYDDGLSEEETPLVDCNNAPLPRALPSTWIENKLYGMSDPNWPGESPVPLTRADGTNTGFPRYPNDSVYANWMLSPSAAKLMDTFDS
experiment_notes: In vitro kinase activity assay (LANCE TR-FRET)
Format: biochemical
condition_info: read-out: RET (nM) IC50
value_kind: IC50
Please make sure the unit comes right after the number.

- molecule: "C[C@@H](Cc1c(F)c(F)cc(F)c1F)Nc1cc[nH]c(=O)c1-c1nc2cc3c(cc2[nH]1)C(=O)N(CCN(C)C)C3=O [Compound 2]"
  observed_measurement: "25.8 nM"

Asked: Lab request: please report IC50 under test system RET (Homo sapiens (Human)) for CC(Cc1cc(F)ccc1F)Nc1cc[nH]c(=O)c1-c1nc2cc3c(cc2[nH]1)C(=O)N(CCN(C)C)C3 (racemic) [Compound 18]
Given back: 13.1 nM

Asked: Proceed to C[C@@H](Cc1c(F)c(F)cc(F)c1F)Nc1cc[nH]c(=O)c1-c1nc2cc3c(cc2[nH]1)CN(CCN(C)C)C3=O [Compound 1]
Given back: 3.53 nM

Asked: Likewise for CC(Cc1cc(F)ccc1F)Nc1cc[nH]c(=O)c1-c1nc2cc3c(cc2[nH]1)CN(C)C3=O (stereo not shown) [Compound 33] ?
Given back: 17.7 nM

====

study_target: ALK R1275Q (Homo sapiens (Human), UniProt Q9UM73, R1275Q)
Sequence (Q9UM73 1060-1620 R1275Q): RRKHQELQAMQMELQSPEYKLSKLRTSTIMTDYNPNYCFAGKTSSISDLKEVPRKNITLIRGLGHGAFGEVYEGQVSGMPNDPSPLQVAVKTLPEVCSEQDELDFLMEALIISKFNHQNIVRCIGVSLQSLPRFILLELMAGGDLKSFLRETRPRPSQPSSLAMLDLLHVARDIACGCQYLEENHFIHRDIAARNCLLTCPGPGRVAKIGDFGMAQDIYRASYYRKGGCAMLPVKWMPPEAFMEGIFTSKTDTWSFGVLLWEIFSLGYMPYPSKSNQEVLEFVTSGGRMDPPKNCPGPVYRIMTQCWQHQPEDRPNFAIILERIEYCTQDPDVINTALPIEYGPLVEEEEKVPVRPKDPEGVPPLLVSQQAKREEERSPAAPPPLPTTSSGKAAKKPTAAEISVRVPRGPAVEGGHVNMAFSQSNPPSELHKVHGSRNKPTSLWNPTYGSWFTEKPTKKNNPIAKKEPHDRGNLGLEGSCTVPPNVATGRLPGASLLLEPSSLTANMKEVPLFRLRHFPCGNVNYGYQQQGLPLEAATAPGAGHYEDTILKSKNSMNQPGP
experiment_notes: Cell free kinase assay (Carna Biosciences kinases)
Assay type: biochemical
condition_info: read-out: Cell Free IC50 (nM) R1275O
value_kind: IC50 (nM)
Quick note: give the figure in nM, leave out the unit.

Asked: Report IC50 for Cc1ccc(F)cc1C[C@H](C)Nc1cc[nH]c(=O)c1-c1nc2cc3c(cc2[nH]1)CN(CCN(C)C)C3=O (stereo in doubt) please.
Given back: 16.8

====

study_target: hERG potassium channel (Homo sapiens (Human))
experiment_notes: hERG potassium channel current, automated patch clamp (PatchXpress 7000A);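 also: Four-point series of 0.3, 3, 10 and 30 µM, two cells recorded per concentration, 5 min exposure at each level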
condition_info: human, Mean % hERG Inhibition, 10 μM
value_kind: inhibition at 5 min, 10 µM
A complete answer gives the number followed by the unit.

Asked: Fill blank: measured inhibition at 5 min, 10 µM of the compound C[C@@H](Cc1c(F)c(F)cc(F)c1F)Nc1cc[nH]c(=O)c1-c1nc2cc3c(cc2[nH]1)CN(CCN(C)C)C3=O [Compound 1] is ____.
Given back: 54.4%

====

study_target: hERG potassium channel (Homo sapiens (Human), UniProt Q12809)
experiment_notes: in vitro
condition_info: Individual Data Points (% Inhibition)
value_kind: inhibition at 5 min, 3 µM (%)
Hi! Could you send only the number? It should be in %, unit omitted.

Asked: Need inhibition at 5 min, 3 µM of C[C@@H](Cc1c(F)c(F)cc(F)c1F)Nc1cc[nH]c(=O)c1-c1nc2cc3c(cc2[nH]1)CN(CCN1CCCC1)C3=O [Compound 3] , thanks.
Given back: 49.1

====

experiment_notes: in vitro
condition_info: human, microsomes, pH 7.4, Human LM-P1 Half-life (min)
value_kind: half-life at 0.5 μM (h)
Provide the reading as a plain figure in h.

- molecule: "CC(Cc1cc(F)ccc1F)Nc1cc[nH]c(=O)c1-c1nc2cc3c(cc2[nH]1)CN(C)C3=O (centres unmarked) [Compound 33]"
  observed_measurement: 0.443

Would you kindly look at the next entry?
Asked: half-life at 0.5 μM lookup needed for CC(Cc1cc(F)ccc1F)Nc1cc[nH]c(=O)c1-c1nc2cc3c(cc2[nH]1)C(=O)N(CC(O)CO)C3=O (centres unmarked) [Compound 34] , thanks.
Given back: 1.26

====

experiment_notes: Metabolic stability, Phase I microsome reactions
Type: in vitro ADME, mouse
condition_info: mouse, liver microsomes, pH 7.4, Phase I only, 1.0 mg/ml microsomes, read-out: Mouse LM-P1 CL
value_kind: microsomal CLint at 0.5 μM (µL/min/mg)
Quick reminder: number only, in µL/min/mg, skip the unit.

- compound: "CC(Cc1cc(F)ccc1F)Nc1cc[nH]c(=O)c1-c1nc2cc3c(cc2[nH]1)C(=O)N(CCN(C)C)C3 (racemic)"
  microsomal CLint at 0.5 μM, µL/min/mg: 29.4

Asked: Request the reported microsomal CLint at 0.5 μM associated with C[C@@H](Cc1c(F)c(F)cc(F)c1F)Nc1cc[nH]c(=O)c1-c1nc2cc3c(cc2[nH]1)C(O)N(c1cccnc1)C3=O (some centres unmarked)
Given back: 7.89

====

experiment_notes: in vitro
condition_info: human, microsomes, pH 7.4, Human LM-P1 Half-life (min)
Form field: half-life at 0.5 μM (one value per entry).
The reply should be a number in h, with the unit left off.

- compound: "CC(Cc1cc(F)ccc1F)Nc1cc[nH]c(=O)c1-c1nc2cc3c(cc2[nH]1)C(=O)N(CCN(C)C)C3=O (stereo not shown) [Compound 17]"
  units_label: "h"
  half-life at 0.5 μM: 1.32
- compound: "C[C@@H](Cc1c(F)c(F)cc(F)c1F)Nc1cc[nH]c(=O)c1-c1nc2cc3c(cc2[nH]1)C(O)N(c1cccnc1)C3=O (stereo partly shown) [Compound 13]"
  units_label: "h"
  half-life at 0.5 μM: 1.32
- compound: "C[C@@H](Cc1cc(F)ccc1F)Nc1cc[nH]c(=O)c1-c1nc2cc3c(cc2[nH]1)C(=O)N(C)C3=O [Compound 32]"
  units_label: "h"
  half-life at 0.5 μM: 1.48
- compound: "CC(Cc1cc(F)ccc1F)Nc1cc[nH]c(=O)c1-c1nc2cc3c(cc2[nH]1)CNC3=O (stereo not shown) [Compound 53]"
  units_label: "h"
  half-life at 0.5 μM: 0.457
- compound: "Cc1ccc(F)cc1CC(C)Nc1cc[nH]c(=O)c1-c1nc2cc3c(cc2[nH]1)CNC3=O (stereo not shown) [Compound 52]"
  units_label: "h"
  half-life at 0.5 μM: 0.0861

Okay, now this compound:
Asked: Given C[C@@H](Cc1c(F)c(F)cc(F)c1F)Nc1cc[nH]c(=O)c1-c1nc2cc3c(cc2[nH]1)CN(CCN(C)C)C3=O [Compound 1] , state its recorded half-life at 0.5 μM.
Given back: 1.97

====

study_target: TrkA (Homo sapiens (Human))
Sequence (P04629 33-796): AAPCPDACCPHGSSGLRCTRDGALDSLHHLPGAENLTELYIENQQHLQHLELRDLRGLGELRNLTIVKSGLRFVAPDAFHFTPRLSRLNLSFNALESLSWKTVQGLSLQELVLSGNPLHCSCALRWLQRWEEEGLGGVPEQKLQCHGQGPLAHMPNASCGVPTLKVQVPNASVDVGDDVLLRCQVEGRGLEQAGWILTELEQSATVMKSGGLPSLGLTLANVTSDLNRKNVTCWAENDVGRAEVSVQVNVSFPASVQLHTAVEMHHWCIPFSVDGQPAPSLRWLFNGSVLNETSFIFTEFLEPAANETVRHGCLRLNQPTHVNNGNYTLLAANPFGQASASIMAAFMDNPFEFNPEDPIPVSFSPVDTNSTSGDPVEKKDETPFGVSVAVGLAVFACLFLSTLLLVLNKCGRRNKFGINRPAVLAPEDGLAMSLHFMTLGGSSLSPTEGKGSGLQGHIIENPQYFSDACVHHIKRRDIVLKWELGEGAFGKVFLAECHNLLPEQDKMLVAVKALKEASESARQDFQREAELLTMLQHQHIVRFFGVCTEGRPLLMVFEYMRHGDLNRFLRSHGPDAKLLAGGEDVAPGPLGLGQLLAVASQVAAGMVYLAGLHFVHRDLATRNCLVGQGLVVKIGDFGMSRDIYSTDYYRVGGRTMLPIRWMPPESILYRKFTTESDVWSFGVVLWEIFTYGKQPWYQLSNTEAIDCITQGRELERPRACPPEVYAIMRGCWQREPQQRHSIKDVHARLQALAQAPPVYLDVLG
experiment_notes: In vitro kinase activity assay (LANCE TR-FRET)
Format: biochemical
condition_info: read-out: TrKA IC50
value_kind: IC50 (nM)
Please reply with the bare figure in nM and do not write the unit itself.

Recorded IC50, per entry:
- compound: "CC(Cc1cc(F)ccc1F)Nc1cc[nH]c(=O)c1-c1nc2cc3c(cc2[nH]1)C(=O)N(CCN(C)C)C3 (racemic) [Compound 18]"
  observed_measurement: 4
- compound: "C[C@@H](Cc1c(F)c(F)cc(F)c1F)Nc1cc[nH]c(=O)c1-c1nc2cc3c(cc2[nH]1)C(=O)N(c1cccnc1)C3=O [Compound 12]"
  observed_measurement: 20
- compound: "C[C@@H](Cc1cc(F)cc(F)c1F)Nc1cc[nH]c(=O)c1-c1nc2cc3c(cc2[nH]1)CN(CCN(C)C)C3=O [Compound 31]"
  observed_measurement: 4
- compound: "COC1c2cc3nc(-c4c(N[C@@H](C)Cc5c(F)c(F)cc(F)c5F)cc[nH]c4=O)[nH]c3cc2C(=O)N1c1cccnc1 (stereo partly drawn) [Compound 14]"
  observed_measurement: 42

Asked: What does the data say about its IC50? Entry: C[C@@H](Cc1c(F)c(F)cc(F)c1F)Nc1cc[nH]c(=O)c1-c1nc2cc3c(cc2[nH]1)C(=O)N(CCN(C)C)C3=O [Compound 2]
Given back: 12

Asked: Please give the result for C[C@@H](Cc1c(F)c(F)cc(F)c1F)Nc1cc[nH]c(=O)c1-c1nc2cc3c(cc2[nH]1)C(O)N(c1cccnc1)C3=O (stereo partly drawn) [Compound 13] too.
Given back: 6
